- System: P-gp (human MDR1)
- experiment-description: in vitro
- condition-info: dog, MDCKII-MDR1 cell monolayers (transfected with human MDR1), pH 7.4
measurement-kind: recovery at 60 min, 0.5 μM

Prompt: Supply recorded recovery at 60 min, 0.5 μM for CN(C)CCC=C1c2ccccc2COc2ccccc21 [Doxepin, doxepin] here.
Completion: ~50%

----------
- System: P-gp (human MDR1)
- experiment-description: Equilibrium distribution study (in vitro Kp,brain / Kp,uu,brain) across MDCKII-MDR1 cells, BSA apical, brain homogenate basolateral, Uni-L and Bi-L
- condition-info: dog, MDCK-MDR1, pH 7.5, in vitro determined Kp,brain Bi-L, Bi-L (compound loaded both sides), 29 h, 1 μM, brain homogenate/BSA ratio
Reported values of Kp at 29 h, 1 μM for individual entries
Just the number, please, no unit after it.

molecule | Kp at 29 h, 1 μM
Clc1ccc2c(c1)N=C(N1CCNCC1)c1ccccc1N2 [N-desmethylclozapine] | 4.2
CN(C)CCCC1(c2ccc(F)cc2)OCc2cc(C#N)ccc21 (stereo not drawn) [Citalopram, citalopram] | 1.5
NCC1(CC(=O)O)CCCCC1 [Gabapentin, gabapentin] | 0.9
CN/C(=N/CCSCc1nc[nH]c1C)NC#N [Cimetidine, cimetidine] | 0.6
CC(C)NCC(O)COc1cccc2ccccc12 (stereo not drawn) [Propranolol, propranolol] | 1.9
O=C(c1ccc(F)cc1)C1CCN(CCn2c(=S)[nH]c3ccccc3c2=O)CC1 [Altanserin] | 1.49
CCN(CC)CCNC(=O)c1cc(Cl)c(N)cc1OC [Metoclopramide, metoclopramide] | 0.96
CN(C)CCC=C1c2ccccc2COc2ccccc21 [Doxepin, doxepin] | 2.2

Prompt: Supply recorded Kp at 29 h, 1 μM for COc1ccc2c(c1)c(CC(=O)O)c(C)n2C(=O)c1ccc(Cl)cc1 [Indomethacin, indomethacin] here.
Completion: 0.78

----------
- System: P-gp (human MDR1)
- experiment-description: in vitro
- condition-info: dog, MDCK-MDR1, pH 7.4, with an inhibitor present (name and concentration not stated)
measurement-kind: Papp A→B at 60 min, 0.5 μM (×10⁻⁶ cm/s)
# number only, unit ×10⁻⁶ cm/s dropped from output

Prompt: Supply recorded Papp A→B at 60 min, 0.5 μM for `Clc1ccc2c(c1)N=C(N1CCNCC1)c1ccccc1N2` here.
Completion: 3.6

----------
- tgt: Bovine Serum Albumin (BSA) (Bos taurus)
- experiment-description: Fraction unbound in 35 μM BSA, equilibrium dialysis
- condition-info: bovine, 35 μM BSA
measurement-kind: fraction unbound at 5 h, 1 μM

Solved cases (7 shown):
molecule | fraction unbound at 5 h, 1 μM
O=C(c1ccc(F)cc1)C1CCN(CCn2c(=S)[nH]c3ccccc3c2=O)CC1 | 0.451
CC(C)NCC(O)COc1cccc2ccccc12 (centres unmarked) | 0.897
CN/C(=N/CCSCc1nc[nH]c1C)NC#N | > 1
Clc1ccc2c(c1)N=C(N1CCNCC1)c1ccccc1N2 | 0.892
CN(C)CCC=C1c2ccccc2COc2ccccc21 [Doxepin, doxepin] | 0.922
CNCCC(Oc1ccc(C(F)(F)F)cc1)c1ccccc1 (centres unmarked) | 0.66
CN(C)CCCC1(c2ccc(F)cc2)OCc2cc(C#N)ccc21 (centres unmarked) | 0.973

Now take the following molecule into account.
Prompt: For Bovine Serum Albumin (BSA) (Bos taurus), give the measured fraction unbound at 5 h, 1 μM of the entry CCN(CC)CCNC(=O)c1cc(Cl)c(N)cc1OC [Metoclopramide, metoclopramide]
Completion: > 1

----------
- tgt: Bovine Serum Albumin (BSA) (Bos taurus)
- experiment-description: in vitro
- condition-info: isolated protein
measurement-kind: fraction unbound at 5 h, 1 μM

Prompt: Supply recorded fraction unbound at 5 h, 1 μM for Cc1cc(=O)n(-c2ccccc2)n1C [Antipyrine, antipyrine] here.
Completion: > 1

----------
- tgt: Bovine Serum Albumin (BSA) (Bos taurus)
- experiment-description: Fraction unbound in 35 μM BSA, equilibrium dialysis
- condition-info: calculated with Eq. 2 from fu measured in 100% matrices (ref 20), dilution factor 20
measurement-kind: Predicted fu (%) BSA 35 μM (D = 20)
Remember to follow the number with its unit.

Prompt: Supply recorded Predicted fu (%) BSA 35 μM (D = 20) for `Clc1ccc2c(c1)N=C(N1CCNCC1)c1ccccc1N2` here.
Completion: 82.1%

Prompt: Supply recorded Predicted fu (%) BSA 35 μM (D = 20) for `O=C(c1ccc(F)cc1)C1CCN(CCn2c(=S)[nH]c3ccccc3c2=O)CC1` here.
Completion: 26.8%

Prompt: Supply recorded Predicted fu (%) BSA 35 μM (D = 20) for `CN/C(=N/CCSCc1nc[nH]c1C)NC#N` here.
Completion: 99.2%

Prompt: Supply recorded Predicted fu (%) BSA 35 μM (D = 20) for CC(C)NCC(O)COc1cccc2ccccc12 (stereo not shown) here.
Completion: 86.8%

Prompt: Supply recorded Predicted fu (%) BSA 35 μM (D = 20) for `NCC1(CC(=O)O)CCCCC1` here.
Completion: 99.8%

Prompt: Supply recorded Predicted fu (%) BSA 35 μM (D = 20) for `COc1ccccc1N1CCN(CCN(C(=O)C2CCCCC2)c2ccccn2)CC1` here.
Completion: 87.1%

Prompt: Supply recorded Predicted fu (%) BSA 35 μM (D = 20) for CNCCC(Oc1ccc(C(F)(F)F)cc1)c1ccccc1 (stereo not shown) here.
Completion: 70.6%

Prompt: Supply recorded Predicted fu (%) BSA 35 μM (D = 20) for CN(C)CCCC1(c2ccc(F)cc2)OCc2cc(C#N)ccc21 (stereo not shown) here.
Completion: 96.0%

Prompt: Supply recorded Predicted fu (%) BSA 35 μM (D = 20) for CCN(CC)CCNC(=O)c1cc(Cl)c(N)cc1OC [Metoclopramide, metoclopramide] here.
Completion: 98.8%

Prompt: Supply recorded Predicted fu (%) BSA 35 μM (D = 20) for CN(C)CCC=C1c2ccccc2COc2ccccc21 [Doxepin, doxepin] here.
Completion: 87.1%

----------
- experiment-description: Fraction unbound in 20-fold diluted brain homogenate, equilibrium dialysis
- condition-info: Göttingen, minipig, brain homogenate, pH 7.4
measurement-kind: fraction unbound at 5 h, 1 μM

Prompt: Supply recorded fraction unbound at 5 h, 1 μM for NCC1(CC(=O)O)CCCCC1 [Gabapentin, gabapentin] here.
Completion: 0.946

----------
- tgt: Bovine Serum Albumin (BSA) (Bos taurus, UniProt P02769)
- Sequence (P02769 25-607): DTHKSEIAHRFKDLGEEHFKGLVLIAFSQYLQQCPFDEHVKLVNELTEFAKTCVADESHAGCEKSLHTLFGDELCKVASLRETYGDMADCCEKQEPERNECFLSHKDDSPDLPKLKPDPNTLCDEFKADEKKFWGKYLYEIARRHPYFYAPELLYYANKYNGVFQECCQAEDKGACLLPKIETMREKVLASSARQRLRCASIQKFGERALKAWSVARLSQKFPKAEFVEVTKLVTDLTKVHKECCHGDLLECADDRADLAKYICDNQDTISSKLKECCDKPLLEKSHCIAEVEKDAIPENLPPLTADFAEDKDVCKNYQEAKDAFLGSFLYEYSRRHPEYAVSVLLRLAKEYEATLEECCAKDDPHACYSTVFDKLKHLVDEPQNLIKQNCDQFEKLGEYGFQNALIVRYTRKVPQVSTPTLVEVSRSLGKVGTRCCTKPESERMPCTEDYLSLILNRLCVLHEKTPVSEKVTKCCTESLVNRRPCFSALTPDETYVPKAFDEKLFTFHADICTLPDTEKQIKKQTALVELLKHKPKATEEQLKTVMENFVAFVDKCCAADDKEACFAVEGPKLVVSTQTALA
- experiment-description: Fraction unbound in 35 μM BSA, equilibrium dialysis
- condition-info: bovine, isolated protein
measurement-kind: fraction unbound at 5 h, 1 μM
Just the number, please, no unit after it.

Prompt: Supply recorded fraction unbound at 5 h, 1 μM for NCC1(CC(=O)O)CCCCC1 [Gabapentin, gabapentin] here.
Completion: 0.984

----------
- Test system: P-gp (human MDR1)
- experiment-description: in vitro
- condition-info: dog, pH 7.5, Recovery Uni-L
measurement-kind: recovery at 29 h, 1 μM
Remember to follow the number with its unit.

Prompt: Supply recorded recovery at 29 h, 1 μM for Cc1cc(=O)n(-c2ccccc2)n1C [Antipyrine, antipyrine] here.
Completion: 77%

----------
Reported values of recovery at 29 h, 1 μM for individual entries
- Test system: P-gp (human MDR1)
- experiment-description: Equilibrium distribution study (in vitro Kp,brain / Kp,uu,brain) across MDCKII-MDR1 cells, BSA apical, brain homogenate basolateral, Uni-L and Bi-L
- condition-info: dog, pH 7.5, assay recovery, equilibrium distribution experiment, setup (Uni-L/Bi-L) not given

compound | recovery at 29 h, 1 μM
CN(C)CCC=C1c2ccccc2COc2ccccc21 [Doxepin, doxepin] | ~50%
Clc1ccc2c(c1)N=C(N1CCNCC1)c1ccccc1N2 [N-desmethylclozapine] | ~50%
O=C(c1ccc(F)cc1)C1CCN(CCn2c(=S)[nH]c3ccccc3c2=O)CC1 [Altanserin] | ~20%

Prompt: Supply recorded recovery at 29 h, 1 μM for CC(C)NCC(O)COc1cccc2ccccc12 (stereo not shown) [Propranolol, propranolol] here.
Completion: ~20%
